Reference source: the Kinase Knowledgebase extract (Sharma et al. 2016)

MEASUREMENT TARGET: PIK3CB;PIK3CG;PIK3CD;PIK3CA (human)
ASSAY SUMMARY: Enzyme Assay
ENDPOINT LABEL: IC50 (µM)

See these solved cases before continuing.
Lab request: please report IC50 under test system PIK3CB;PIK3CG;PIK3CD;PIK3CA (human) for COC1CN(Cc2cccc(-n3nc(C(=O)N4CCOCC4)c4c3-c3ccccc3S(=O)(=O)C4)c2)C1 0.277

Lab request: please report IC50 under test system PIK3CB;PIK3CG;PIK3CD;PIK3CA (human) for CC1CC(C)CC(n2nc(C(=O)N3CCOCC3)c3c2-c2ccccc2S(=O)(=O)C3)C1 (centres undefined) 7.96

Lab request: please report IC50 under test system PIK3CB;PIK3CG;PIK3CD;PIK3CA (human) for O=C(c1nn([C@@H]2CCCN(C3CCCOC3)C2)c2c1CS(=O)(=O)c1ncccc1-2)N1CCOCC1 (some centres undefined) 2.93

Lab request: please report IC50 under test system PIK3CB;PIK3CG;PIK3CD;PIK3CA (human) for CCC1c2c(C(=O)N3CCOCC3)nn(-c3ccccc3)c2-c2ccccc2S1(=O)=O (centres undefined) 2.47

Lab request: please report IC50 under test system PIK3CB;PIK3CG;PIK3CD;PIK3CA (human) for O=C(c1nn([C@H]2CCCN(CCN3CCCCC3)C2)c2c1CS(=O)(=O)c1ccccc1-2)N1CCOCC1 0.015

A: COCCOCCN1CCCC(n2nc(C(=O)N3CCOCC3)c3c2-c2ccccc2S(=O)(=O)C3)C1 (centres undefined)
B: O=C(CC1CCOCC1)N1CCC[C@H](n2nc(C(=O)N3CCOCC3)c3c2-c2ccccc2S(=O)(=O)C3)C1
C: COCCNC(=O)c1cccc(-n2nc(C(=O)N3CCOCC3)c3c2-c2ccccc2S(=O)(=O)C3)c1
D: O=C(c1nn(-c2ccc3[nH]ncc3c2)c2c1CS(=O)(=O)c1ccccc1-2)N1CCOCC1
Ascending by IC50, please. Answer with the labels in sequence, matching the requested order. B, A, C, D
(B: 0.345 µM, A: 0.635 µM, C: 1.11 µM, D: 1.64 µM)

---

MEASUREMENT TARGET: PIK3CB;PIK3CG;PIK3CD;PIK3CA (human) (UniProt P48736)
ASSAY SUMMARY: Enzyme Assay
ENDPOINT LABEL: IC50 (µM)

I: O=C(c1nn(C2CCCC(C(=O)N3CCCCC3)C2)c2c1CS(=O)(=O)c1ccccc1-2)N1CCOCC1 (stereo not given)
II: COCc1noc(-c2cccc(-n3nc(C(=O)N4CCOCC4)c4c3-c3ccccc3S(=O)(=O)C4)c2)n1
Quick one: lower IC50, I or II ? # reply format: chosen label I

A: CC1COCCN1Cc1ccc(-n2nc(C(=O)N3CCOCC3)c3c2-c2ccccc2S(=O)(=O)C3)cc1 (stereo not given)
B: COCCNc1ccc2c(c1)-c1c(c(C(=O)N3CCOCC3)nn1-c1ccccc1)CS2(=O)=O
C: NCCCC1c2c(C(=O)N3CCOCC3)nn(-c3ccccc3)c2-c2ccccc2S1(=O)=O (stereo not given)
Ascending by IC50, please. Answer with the labels in sequence, matching the requested order. A, B, C
(A: 0.18 µM, B: 0.902 µM, C: 4.52 µM)

---

MEASUREMENT TARGET: PIK3CB;PIK3CG;PIK3CD;PIK3CA (human) (UniProt P48736)
ASSAY SUMMARY: Enzyme Assay
ENDPOINT LABEL: IC50 (µM)

a: CC(C)c1ccc(-n2nc(C(=O)N3CCOCC3)c3c2-c2ccccc2S(=O)(=O)C3)cc1
b: COc1ccc(-n2nc(C(=O)N3CCOCC3)c3c2-c2ccccc2S(=O)(=O)C3)cn1
Could you kindly indicate whether a or b has the higher IC50 value? # reply format: chosen label b
(b: 2.2 µM, a: 1.47 µM)

---

MEASUREMENT TARGET: UniProt:P48736
ASSAY SUMMARY: Enzyme Assay
pIC50: −log10 of the molar value.
ENDPOINT LABEL: pIC50

See these solved cases before continuing.
Lab request: please report pIC50 under test system UniProt:P48736 for Nc1ncc(-c2cccc(-n3nc(C(=O)N4CCOCC4)c4c3-c3ccccc3S(=O)(=O)C4)c2)cn1 6.34

Lab request: please report pIC50 under test system UniProt:P48736 for O=C(c1nn([C@H]2CCCN(C3CCOCC3)C2)c2c1CS(=O)(=O)c1ccccc1-2)N1CCOCC1 7.10

Lab request: please report pIC50 under test system UniProt:P48736 for COCCN1CCC[C@H](n2nc(C(=O)N3CCOCC3)c3c2-c2ccccc2S(=O)(=O)C3)C1 7.40

Lab request: please report pIC50 under test system UniProt:P48736 for CS(=O)(=O)c1cccc(-n2nc(C(=O)N3CCOCC3)c3c2-c2ccccc2S(=O)(=O)C3)c1 5.59

1: O=C(c1nn(C2CCN(CC3CCOC3)C2)c2c1CS(=O)(=O)c1c(F)cccc1-2)N1CCOCC1 (stereo not drawn)
2: NC(=O)c1cccc(-n2nc(C(=O)N3CCOCC3)c3c2-c2ccccc2S(=O)(=O)C3)c1
Could you kindly indicate whether 1 or 2 has the higher pIC50 value? # reply format: chosen label 1

P: O=C(c1nc(-c2ccccc2)n2c1CS(=O)(=O)c1ccccc1-2)N1CCOCC1
Q: O=C(c1nn([C@@H]2CCN(C3CCOCC3)C2)c2c1CS(=O)(=O)c1ccccc1-2)N1CCOCC1
R: Nc1ccc2c(c1)-c1c(c(C(=O)N3CCOCC3)nn1-c1ccccc1)CS2(=O)=O
S: CN(C)c1cccc(-n2nc(C(=O)N3CCOCC3)c3c2-c2ccccc2S(=O)(=O)C3)c1
T: O=C(c1nn(C2CCCCC2)c2c1CS(=O)(=O)c1ccsc1-2)N1CCOCC1
Output the entries ranked by pIC50 from maximum down to minimum. Answer with the labels in sequence, matching the requested order. Q, T, R, P, S

---

MEASUREMENT TARGET: PIK3CB;PIK3CG;PIK3CD;PIK3CA (human) (UniProt P48736)
ASSAY SUMMARY: Enzyme Assay
ENDPOINT LABEL: IC50 (nM)

1: O=C(c1nn([C@H]2CCCN(CC3CCOCC3)C2)c2c1CS(=O)(=O)c1ncccc1-2)N1CCOCC1
2: O=C(c1nn([C@H]2CCCN(C3CCCOC3)C2)c2c1CS(=O)(=O)c1ncccc1-2)N1CCOCC1 (some centres not stated)
3: O=C(c1nn([C@H]2CCCN(CCN3CCC(F)CC3)C2)c2c1CS(=O)(=O)c1ccccc1-2)N1CCOCC1
4: CC(=O)OCCN1CCC(n2nc(C(=O)N3CCOCC3)c3c2-c2ccccc2S(=O)(=O)C3)C1 (configuration not stated)
5: O=C(c1nn(C2CCCN(CCn3cccn3)C2)c2c1CS(=O)(=O)c1c(F)cccc1-2)N1CCOCC1 (configuration not stated)
Arrange the items listed above so that IC50 rises from first to last. Answer with the labels in sequence, matching the requested order. 1, 3, 2, 5, 4
(1: 13 nM, 3: 25 nM, 2: 36 nM, 5: 80 nM, 4: 871 nM)

---

MEASUREMENT TARGET: PIK3CB;PIK3CG;PIK3CD;PIK3CA (human)
ASSAY SUMMARY: Enzyme Assay
ENDPOINT LABEL: IC50 (nM)

Lab request: please report IC50 under test system PIK3CB;PIK3CG;PIK3CD;PIK3CA (human) for Cn1cc(-n2nc(C(=O)N3CCOCC3)c3c2-c2ccccc2S(=O)(=O)C3)ccc1=O 2950

Lab request: please report IC50 under test system PIK3CB;PIK3CG;PIK3CD;PIK3CA (human) for O=C(c1nn(-c2cccc(-c3nccs3)c2)c2c1CS(=O)(=O)c1ccccc1-2)N1CCOCC1 4220

Lab request: please report IC50 under test system PIK3CB;PIK3CG;PIK3CD;PIK3CA (human) for COc1cccc2c1S(=O)(=O)Cc1c(C(=O)N3CCOCC3)nn([C@H]3CCCN(CCN4CCOCC4)C3)c1-2 59

Lab request: please report IC50 under test system PIK3CB;PIK3CG;PIK3CD;PIK3CA (human) for CC1COCCN1C(=O)c1nn(-c2ccccc2)c2c1CS(=O)(=O)c1ccccc1-2 (stereo not drawn) 13900

P: COC(=O)c1ccc(Cn2nc(C(=O)N3CCOCC3)c3c2-c2ccccc2S(=O)(=O)C3)o1
Q: O=C(c1nn([C@H]2CCCN(c3cccnc3)C2)c2c1CS(=O)(=O)c1ccccc1-2)N1CCOCC1
R: COCCCC1c2c(C(=O)N3CCOCC3)nn(-c3ccccc3)c2-c2ccccc2S1(=O)=O (stereo not drawn)
S: O=C(c1nn(-c2cccc(OCCn3ccnc3)c2)c2c1CS(=O)(=O)c1ccccc1-2)N1CCOCC1
Output the entries ranked by IC50 from maximum down to minimum. Answer with the labels in sequence, matching the requested order. R, P, S, Q
